Reference source for all entries: ChEMBL document CHEMBL4270577

System: SR
measurementProtocol: Growth inhibition of human SR cells at 10 uM incubated for 48 hrs by sulforhodamine B assay relative to control
Format: functional
particulars: read-out: GI
endpointLabel: inhibition of growth at 10 µM (%)
# value in %; strip the unit string

Form field: reported inhibition of growth at 10 µM of `C/C(=N/O)c1ccc(NC(=O)Cn2nc(C(F)(F)F)nc2N)cc1`
15.9

What value of measured inhibition of growth at 10 µM is listed for `C/C(=N\O)c1ccc(NC(=O)Cn2nc(-c3ccc(Cl)cc3)nc2N)cc1` ?
18.3

What value of inhibition of growth at 10 µM has been reported for the following compound? `COc1cc(-c2nc(N)n(CC(=O)Nc3ccc(/C(C)=N\O)cc3)n2)cc(OC)c1OC`
17
